inhibition values for the molecules below.
system: Glucose transporter (Leishmania mexicana) (UniProt O61059)
assay-summary: ST_JUDE_LEISH: Cytotoxicity at 2uM final concentration against transgenic Leishmania Mexicana promastigotes LmGT2 that are glucose transport deficient and complemented with the L. Mexicana glucose transporter 2. Activity is measured by DNA content using SYBR green in vitro
Type: functional
Reply with the number and its unit after it.

// below: answered molecules
> print(dat)
                                   molecule  observed.result
1  COc1cccc(-c2ccc(C(=O)NC3CCN(Cc4ccc(N(C)C)cc4)CC3)s2)c1           -0.07%
2  O=C(N[C@@H](Cc1ccccc1)[C@H](O)CNC1CCCc2ccccc21)c1cc(C2CCCC2)cc(N2CCCC2=O)c1 (stereo partly drawn)           -0.94%
3  Cc1cccc(CNc2ncc(C)c(NCCC(=O)Nc3ccccc3)n2)c1            6.61%
4  CN1CCN(Cc2ccc(-c3ccc4c(Nc5ccc(Oc6ccccc6)cc5)ccnc4c3)o2)CC1            0.49%
5  COc1ccc(CNC2CCN(C)CC2)cc1-c1ccc(S(=O)(=O)NCC2CCCO2)s1 (stereo not drawn)            5.52%
6  CCOc1cccc(C(=O)Nc2ccc(-c3nc4ccccc4[nH]3)cc2)c1            3.58%
7  CC(C)[C@H](NC(=O)NC1CCC(CCN2C3CCC2CC(OC(=O)C(CO)c2ccccc2)C3)CC1)C(O)(c1ccccc1)c1ccccc1 (stereo partly drawn)            1.15%
8  CC(C)(C)NCCN(Cc1ccc(-c2ccc(C(F)(F)F)cc2)cc1)C(=O)Cn1c(CCc2cccc(F)c2F)nc(=O)c2ccccc21            1.15%

What does the record list as inhibition for "COc1cc(NC(=O)N2CCc3cc(OC)c(OCCN4CCCCC4)cc32)cc(C(F)(F)F)c1" ?
9.77%
